Assay: Cytotoxicity against human PC3 cells assessed as cell growth at 10 uM incubated for 48 hrs by sulforhodamine B assay
Type: functional
Details: PC-3, 48 h, read-out: Activity
ASSAY METRIC: growth at 10 µM
Give the figure together with its unit, number first.

Consider the worked cases shown below.
Ask | What does the data say about its growth at 10 µM? Entry: Cc1c(O)c(-c2cc3ccccc3[nH]2)cc2c3c(c(=O)oc12)CCC3
Reply | 67%

Ask | What does the data say about its growth at 10 µM? Entry: Cc1c(O)c(-c2cc3ccccc3[nH]2)cc2c3c(c(=O)oc12)CCCC3
Reply | 52.8%

Ask | What does the data say about its growth at 10 µM? Entry: Cc1cc(=O)oc2c(C)c(O)c(-c3cc4ccccc4[nH]3)cc12
Reply | 66.5%

Ask | What does the data say about its growth at 10 µM? Entry: Cc1cc(=O)oc2c(C)c(O)c(-c3cc4ccc(F)cc4[nH]3)cc12
Reply | 27.5%

Query compound follows.
Ask | What does the data say about its growth at 10 µM? Entry: Cc1cc(=O)oc2c(C)c(O)c(-c3ccnc(N)n3)cc12
Reply | 60.3%

====

Tested on: SK-MEL-5
Experiment: Cytotoxicity against human SK-MEL-5 cells assessed as cell growth at 10 uM incubated for 48 hrs by sulforhodamine B assay
Assay type: functional
Conditions: SK-MEL-5, 48 h, read-out: Activity
If the reported growth at 10 µM equals or exceeds 50%, assign fulfilled. If not, assign not fulfilled.

Ask | Would you say Cc1c(O)c(-c2cc3ccccc3[nH]2)cc2c3c(c(=O)oc12)CCCC3 shows growth at 10 µM at minimum 50%?
Reply | fulfilled

Ask | Would you say Cc1cc(=O)oc2c(C)c(O)c(-c3cc4ccc(F)cc4[nH]3)cc12 shows growth at 10 µM at minimum 50%?
Reply | not fulfilled

Ask | Would you say CCCc1cc(=O)oc2c(C)c(O)c(-c3ccc4c(=O)n(-c5ccccc5)nc-4[nH]3)cc12 shows growth at 10 µM at minimum 50%?
Reply | fulfilled

Ask | Would you say Cc1cc(=O)oc2c(C)c(O)c(-c3ccnc(N)n3)cc12 shows growth at 10 µM at minimum 50%?
Reply | not fulfilled

====

Parameter: growth at 10 µM. Scope: all listed entries.
System: CCRF-CEM
Experiment: Cytotoxicity against human CCRF-CEM cells assessed as cell growth at 10 uM incubated for 48 hrs by sulforhodamine B assay
Type: functional
Details: read-out: Activity
Give the figure together with its unit, number first.

Consider the worked cases shown below.
Ask | What does the data say about its growth at 10 µM? Entry: Cc1cc(=O)oc2c(C)c(O)c(-c3cc4ccc(F)cc4[nH]3)cc12
Reply | 43.1%

Ask | What does the data say about its growth at 10 µM? Entry: CCCCc1cc(=O)oc2c(C)c(O)c(-c3ccnc(NC#N)n3)cc12
Reply | -58.3%

Ask | What does the data say about its growth at 10 µM? Entry: Cc1cc(=O)oc2c(C)c(O)c(-c3ccnc4nc5ccccc5n34)cc12
Reply | -81.9%

Ask | What does the data say about its growth at 10 µM? Entry: Cc1cc(=O)oc2c(C)c(O)c(-c3cc[nH]n3)cc12
Reply | -68.5%

Ask | What does the data say about its growth at 10 µM? Entry: Cc1c(O)c(-c2cc[nH]n2)cc2c3c(c(=O)oc12)CCC3
Reply | -69.3%

Ask | What does the data say about its growth at 10 µM? Entry: Cc1cc(=O)oc2c(C)c(O)c(-c3ccnc(N)n3)cc12
Reply | -36.8%

Query compound follows.
Ask | What does the data say about its growth at 10 µM? Entry: Cc1c(O)c(-c2ccnc(N)n2)cc2c3c(c(=O)oc12)CCC3
Reply | -73.3%
